B1: STX11 (parent)
chain: FQRAMHDYNQAEMKQRDNCKIRIQ

Variants of: B1
Assay: protein stability index of a GFP-peptide fusion (GPS, HEK-293T) (PSI 1-6); higher = more stable;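 further: lentivirally expressed fusions sorted by FACS into six bins by GFP to DsRed ratio, PSI derived from sequencing read proportions per bin multiplied by bin number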
Settings: c terminus: a fixed tail appended
Assignment: determine reported protein stability index for the given variants.
Respond with the number and no other words.

Any idea what its protein stability index is? The variant is FQRAMHDYGQAEMKQRDNCKIRIQ
2.33

What do you get for FQRAMHDYNQAEMKQMDNCKIRIQ ?
2.46

What do you get for FQRAMHDYCQAEMKQRDNCKIRIQ ?
2.15

What do you get for FQRAMHDYNQAEEKQRDNCKIRIQ ?
2.49

What do you get for FQRAMHDLNQAEMKQRDNCKIRIQ ?
2.39

What do you get for FQRAMHDYNQAEMKQRDNCKIRNQ ?
3.78

What do you get for FQRAMHDYNQASMKQRDNCKIRIQ ?
2.23

What do you get for FQRAMHDYNQAELKQRDNCKIRIQ ?
2.35

What do you get for FQRAMHDYNQAEYKQRDNCKIRIQ ?
2.62

What do you get for FQTAMHDYNQAEMKQRDNCKIRIQ ?
2.93

What do you get for FQRAMHDYNQAEMKQRDNTKIRIQ ?
3.04

What do you get for FQRAMHDYNQAEMKQRDNCPIRIQ ?
2.37

What do you get for FERAMHDYNQAEMKQRDNCKIRIQ ?
4

What do you get for FQRAMHDYNCAEMKQRDNCKIRIQ ?
1.87

What do you get for FQAAMHDYNQAEMKQRDNCKIRIQ ?
2.94

What do you get for FQRAMHDQNQAEMKQRDNCKIRIQ ?
3.83

What do you get for FQRAMHDYNQGEMKQRDNCKIRIQ ?
3.09

What do you get for FQRAMHDYNQAEMKQRDNCLIRIQ ?
3.26

What do you get for FQRANHDYNQAEMKQRDNCKIRIQ ?
3.1

What do you get for FQRAMHDYNQAEMKQRDNCKHRIQ ?
2.76

What do you get for FQRAMIDYNQAEMKQRDNCKIRIQ ?
2.42

What do you get for FQRAMHDYNQAEMKQRDNCKIRWQ ?
2.83

What do you get for FQRPMHDYNQAEMKQRDNCKIRIQ ?
3.3

What do you get for FQRWMHDYNQAEMKQRDNCKIRIQ ?
1.77

What do you get for FQRAMHDYNQAEMKQRDNVKIRIQ ?
2.96

What do you get for FQRAMHDYNQAFMKQRDNCKIRIQ ?
2.29

What do you get for FQRAMHDYNQAEMKQRDNCKIRAQ ?
3.51

What do you get for FQRAMHDYNQAEMKQRDNYKIRIQ ?
2.61

What do you get for FQRAMHDYNQAEMKQRDNCKGRIQ ?
3.08

What do you get for FQRAMHDYNQNEMKQRDNCKIRIQ ?
2.44

What do you get for FQRAMHDYNQAEFKQRDNCKIRIQ ?
2.5

What do you get for FQRAMHDYNQAEMKQRDNCKIRIV ?
2.42

What do you get for FQRAMHDYNQAEMKQRDNCKIRIY ?
2.05

What do you get for FQRAMHDYNQAENKQRDNCKIRIQ ?
3.5

What do you get for FQRAMHDYNQAEMKQRDNCGIRIQ ?
2.35

What do you get for FQRAMHDYKQAEMKQRDNCKIRIQ ?
2.29

What do you get for FQRAMHDYNQAEMYQRDNCKIRIQ ?
2.14

What do you get for RQRAMHDYNQAEMKQRDNCKIRIQ ?
3.28

What do you get for FQRAMHDYNQAQMKQRDNCKIRIQ ?
2.31

What do you get for FQRAMHDYNQAPMKQRDNCKIRIQ ?
2.02

What do you get for FQRAMHDYNDAEMKQRDNCKIRIQ ?
2.59

What do you get for FQRAMHDYNQAEMKQFDNCKIRIQ ?
2.28

What do you get for FQRAMHDYNLAEMKQRDNCKIRIQ ?
2.36

What do you get for FQRAMHDYSQAEMKQRDNCKIRIQ ?
2.91

What do you get for FQRAMHDYNQAEMKQRDNCKKRIQ ?
2.68

What do you get for FQRAMHDYNQAEMKQRDQCKIRIQ ?
2.5
